experiment: TNFa-triggered NF-kB activation inhibitors, SAR follow-up, cell-based, revised (AID 2337)
pIC50: −log10 of the molar value.
Let's look at some compounds and their measured pIC50.

Reference set, count: 3
INSERT INTO results (compound, outcome_measure, value) VALUES
  ('N#CC(C(=O)COC(=O)CSc1ccc(Cl)cc1)c1nc2ccccc2[nH]1 (stereo not drawn) [MLS-0208254.0001]', 'pIC50', '< 4.70'),
  ('Cc1ccc(C)c(SCC(=O)OCC(=O)C(C#N)c2nc3ccccc3[nH]2)c1 (stereo not drawn) [MLS000392255]', 'pIC50', '< 4.70'),
  ('Cc1cc(SCC(=O)OCC(=O)C(C#N)c2nc3ccccc3[nH]2)c(C)cc1Br (stereo not drawn)', 'pIC50', '< 4.70');

Inquiry: Give its pIC50 value. Item: N#CC(C(=O)COC(=O)CSc1ccc2ccccc2c1)c1nc2ccccc2[nH]1 (stereo not drawn)
Reply text: < 4.70

Inquiry: Give its pIC50 value. Item: CCOC1=CC=CC(C=NNC(=S)Nc2ccccc2[N+](=O)[O-])C1=O (stereo not drawn) [MLS-0270696.0001]
Reply text: 6.38

Inquiry: Please give the measured pIC50 for this compound: Cc1ccc(O)c(/N=C/C2=CC(Cc3ccccc3)C=C([N+](=O)[O-])C2=O)c1 (stereo not drawn)
Reply text: < 4.70

Inquiry: So what does the record say about pIC50 for CCCOC1=CC(=O)C(C=NNC(=S)Nc2ccccc2[N+](=O)[O-])C=C1 (stereo not drawn) ?
Reply text: 6.06

Inquiry: What does the data say about its pIC50? Entry: Cc1cc(Br)ccc1SCC(=O)OCC(=O)C(C#N)c1nc2ccccc2[nH]1 (stereo not drawn)
Reply text: < 4.70
